target: CD28 (Homo sapiens, UniProt P10747); test: Flow binding to Jurkat/IL2 reporter cells (CD28); parameters: host or cells: Jurkat cells expressing an IL-2-luciferase reporter; conditions: Table E10; 33.3 nM; relative to CD80 WT IgV-Fc
Entries annotated with measured CD28 Fold change to WT CD80
// keep it numeric: no unit symbol after the value

1) E35D/M47L/A71G/L85M (protein) VIHVTKEVKEVATLSCGHNVSVEELAQTRIYWQKDKKMVLTMMSGDLNIWPEYKNRTIFDITNNLSIVILGLRPSDEGTYECVVMKYEKDAFKREHLAEVTLSVKAD = 3.0

Now take the following molecule into account.
Challenge: Tell me the measured CD28 Fold change to WT CD80 of H18Y/E35D (protein) VIHVTKEVKEVATLSCGYNVSVEELAQTRIYWQKDKKMVLTMMSGDMNIWPEYKNRTIFDITNNLSIVILALRPSDEGTYECVVLKYEKDAFKREHLAEVTLSVKAD , please.
Response given: 7.3
